# test-system: RSV prefusion F, subtype A (preF, DS-Cav1 trimer) (Respiratory syncytial virus subtype A, UniProt P03420 26-513)
# measurement-protocol: BLI, IgG apparent affinity
quantity-kind: Kd (nM)
Lab book: enter the figure in nM, no units written.

// solved cases for Kd follow
binder	result-number
ADI-21083 (antibody, V domains shown) VH: QVQLQESGPGLVKPSGTLSLTCAVSGDSITTSNWWSWVRQPPGKGLEWIGEIYHSGVTRYNPSLKSRLSISLDKSRNQFSLKLSSVTAADTAVYYCARDEALFGHWFDPWGQGTLVTVSS VL: QSVLTQPRSVSGSPGQSVTISCTGSSSDIGSYNYVSWYQQHPGKAPKLMLYDVSKRPSGVPDRFSGSKSVKTASLTISGLQAEDEADYYCCTYAGNSVVFGGGTKLTVL	2.25
ADI-21071 (antibody, V domains shown) VH: EVQLVESGGGVVQPGKSLRLSCAVSGFTFSDHDMHWVRQAPGKGLEWVAAIWSDRTTKYYGDFVKGRFTISRDNSKNTLYLQMNSLRAEDTAVYYCARGQIYKSGGYYLVHLDHWGQGTLVTVSS VL: DIQVTQSPSSLSASVGDRVTITCRASQSIASYLNWYQQKPGKAPNLLIYAASNLQSEVPSRFSGSGSGTDFTLTISGLQPEDFATYYCQQSYNIRLLTFGGGTKVEIK	1.17

// next item, Kd requested
q: Which Kd is listed for ADI-21091 (antibody, V domains shown) VH: QVQLVQSGAEVKKPGESLRISCQYSAYGFSTYWISWVRQLPGKGLEWMGRIDPSDSHTTYSPSFQGHVTLSADKSISTVYLQWSSLKASDTAMYYCARHQEYSGSDLDSWGQGTLVTVSS VL: QPVLTQPPSVSAAPGQRVTISCSGTRSNIGYNFVSWYQQLPGTAPKLLIYDNNKRPSGIPDRFSGSKSGTSATLAITGLQTGDEADYYCGTWDSSLSALFGGGTKVTVL ?
a: 0.749
